# test.description: P. aeruginosa biofilm formation inhibitors, primary screen, PAO1 strain, BacTiter-Glo luminescence, LB-PBS (AID 1144)
# condition.info: 12 h, higher = more signal
# cutoff -0.04 applies to z-score; >= gives 1, < gives -1

Example entries and their recorded answers appear below.
* CN1C=C(C(=O)OCCS(C)(=O)=O)C(C(=O)OCCS(C)(=O)=O)=CC(c2ccc(CO)cc2)=CC1c1cccs1 (stereo unspecified) | 1
* COCCOC(=O)N1C(=O)[C@@]2(c3cc(C#CCC(C(=O)OC)C(=O)OC)ccc31)[C@H](c1ccc(OCCO)cc1)N1[C@H](c3ccccc3)[C@H](c3ccccc3)OC(=O)[C@H]1[C@@H]2C(=O)Nc1nc2ccccc2s1 | -1
* COc1ccc(C#Cc2ccc3c(c2)[C@]2(C(=O)N3)[C@H](C(=O)Nc3nc4ccccc4s3)[C@H]3C(=O)O[C@H](c4ccccc4)[C@H](c4ccccc4)N3[C@@H]2c2ccccc2OCCO)cc1 | -1
* O=C1O[C@H](c2ccccc2)[C@H](c2ccccc2)N2[C@H]1[C@@H](C(=O)O)[C@]1(C(=O)Nc3ccc(C#CC4(O)CCCCCC4)cc31)[C@H]2c1ccc(O)cc1 | -1
* C=C(/C(=C/C[C@@H](OC(C)=O)c1ccc(CO)o1)c1cc(C(=O)OC)ccc1OC)C(C)C | -1

In plain terms: is recorded z-score at least -0.04 for C=C(COC)/C(=C/C[C@H](OC(C)=O)c1cccc(OCCO)c1)c1cnc2ccccc2c1 ?
1

====

# Test system: Plasmodium falciparum Sir2 (PF13_0152, Sir2A)
# test.description: pfSir2 binders on small-molecule microarrays, primary screen, biochemical, small-molecule microarray, 635 nm fluorescence (AID 1098);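 also: score merges spot fluorescence intensity with its signal-to-noise ratio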
# condition.info: small-molecule microarray binding, fluorescence 635 nm; higher = more signal
Give satisfied when the value for composite z-score is at least 0.7. Give not satisfied when it is less.

- C=C(C)[C@@H]1CC=C(C(O)C2C=CC3C(=O)N(c4ccccc4)C(=O)C3N2Nc2ccc(C#N)cc2)CC1 (stereo not given in full): satisfied

Decide: is the reported value of composite z-score for C=C[C@H](C)[C@H](OC(=O)Nc1ccc(OC)cc1)c1ccc(OCCO)cc1 equal to or greater than 0.7?
not satisfied

Is composite z-score for CCOC(=O)C1=CCC(c2ccccc2)N(S(=O)(=O)c2ccc([N+](=O)[O-])cc2)C1 (stereo not given) at or above 0.7?
not satisfied

Given C=C/C=C/[C@@H]1C(=C)CN([C@@H](Cc2ccccc2)C(=O)OC)[C@H]1[C@@H](O)Cc1ccccc1 , state whether its composite z-score is at least 0.7.
satisfied

Can COCC(=C=CC[C@@H](O)c1ccc(OCCO)cc1)CCO be said to have composite z-score at or above 0.7?
satisfied

====

Listed compounds paired with reported composite z-score
# test.description: small-molecule microarray binders of probe aCHRDL2, primary screen, biochemical, biotinylated probe, 635/667 nm fluorescence (AID 1100)
# condition.info: higher = more signal
Just the number, please, no unit after it.

Use these answered entries as a reference point.
• CC(C)N1CC=CC23O[C@@H]4/C=C\CCCOC(=O)C4[C@H]2C(=O)N(CCCCCCO)[C@@H]3C1=O (some centres undefined) = 0.777
• COc1ccc([Si](C)(C)[C@@H]2[C@@H](CCn3cc([C@H](O)c4ccccc4)nn3)O[C@]3(C(=O)N(c4ccccc4)c4ccccc43)[C@H]2C)cc1 = -0.142

Give the reported value of composite z-score for this record: C=CCC(OC(C)=O)[C@@H]1[C@@H](N(Cc2cccc3ccccc23)C(=O)Cc2ccc(F)cc2)c2cc(OCCCO)ccc2N1C(=O)c1ccc(-c2ccccc2)cc1 (some centres undefined)
0.976

Quote composite z-score reported for Cc1ccccc1C(O)C1C=CC2C(=O)N(c3ccccc3)C(=O)C2N1Nc1ccc([N+](=O)[O-])cc1 (centres undefined) please.
0.793

====

Each entry below carries its recorded composite z-score.
# System: XIP peptide (Xip251-270) binding
# test.description: small-molecule binders of XIP peptide, primary screen, biochemical, small-molecule microarray, fluorescence 635/667 nm, 0.1 µg/mL protein (AID 1182)
# condition.info: fluorescent protein binding, 635 nm, higher = more signal, called active from +8 up or from −8 down
Activity calls are given as the source filed them.

Please review the following examples before continuing.
• [N-]=[N+]=NCc1ccccc1C[C@@]1(C(=O)N2CCCCC2)N=C(c2ccc(OCCCO)cc2)O[C@@H]1c1ccccc1CN=[N+]=[N-] = 0.0378 (inactive)
• CCOC(=O)C[C@H]1[C@H](OC(=O)c2ccc(-c3ccccc3)cc2)[C@@H](NC(=O)Cc2ccc(OC)cc2)c2cc(OCCCO)ccc2N1C(=O)Cc1ccc(OC)cc1 = 0.0878 (inactive)
• COCC(=C=CC[C@@H](O)c1ccc(OCCO)cc1)CCO = 0.474 (inactive)
• C=C(/C(=C/C[C@@H](OC(C)=O)c1ccc(OCCO)cc1)c1cc(C(=O)OC)ccc1OC)C(C)C = 0.96 (inactive)

Please give the documented composite z-score of CCCCCN1CC=CC23O[C@@H]4C=CCOC(=O)[C@@H]4[C@H]2C(=O)N(CCO)[C@@H]3C1=O (stereo partly specified)
0.647 (inactive)

====

# measured.target: Calmodulin-1 (Homo sapiens)
# test.description: CALM1 binders on microarrays, EGTA buffer, profiling panel, biochemical, small-molecule microarray, Cy5-labelled CALM1 (AID 1111);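 also: labelled calmodulin applied in Tris saline Tween buffer holding calcium plus EGTA and DTT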
# condition.info: Cy5-CALM1 binding fluorescence, higher = more signal
measured.property: composite z-score

Example results:
* C=CCC(OC(C)=O)[C@@H]1[C@@H](N(Cc2cc3ccccc3o2)C(=O)c2ccc(-c3ccccc3)cc2)c2cc(OCCCO)ccc2N1C(=O)Cc1ccc(OC)cc1 (some centres not stated) | -0.184
* C=C(C(=O)CC[C@H](OC(=O)c1ccccc1-c1ccccc1C(=O)O)c1ccccc1OCCO)C(C)C | -0.246
* CCOC(=O)C1=C[C@@H](C(C)(C)C)N(S(=O)(=O)c2ccc(C)cc2)[C@H]1c1cccc(Cl)c1 | 1.09
* COCCOC(=O)N1C(=O)[C@@]2(c3cc(C#CCCO)ccc31)[C@H](C(N)=O)[C@H]1C(=O)O[C@H](c3ccccc3)[C@H](c3ccccc3)N1[C@@H]2c1ccc(OCCO)cc1 | 1.1
* CCCCC=C[C@@H](NC(=O)c1ccccc1)c1ccccc1 | 1.87
* Cc1ccc(S[C@]2(C(=O)NC(C)C)CC(=O)N(C(C)C)[C@@H]2c2ccc(CO)cc2I)cc1 | 0.198

// next item, composite z-score requested
Indicate its recorded composite z-score; the compound in question is [N-]=[N+]=NCc1ccccc1[C@@H]1OC(c2ccc(OCCCO)cc2)=N[C@]1(Cc1ccccc1N=[N+]=[N-])C(=O)NCCN1CCOCC1
0.969

====

# measured.target: Neurogenic locus notch homolog protein 3 (Homo sapiens) (UniProt Q9UM47)
# Sequence (Q9UM47 whole entry, looked up): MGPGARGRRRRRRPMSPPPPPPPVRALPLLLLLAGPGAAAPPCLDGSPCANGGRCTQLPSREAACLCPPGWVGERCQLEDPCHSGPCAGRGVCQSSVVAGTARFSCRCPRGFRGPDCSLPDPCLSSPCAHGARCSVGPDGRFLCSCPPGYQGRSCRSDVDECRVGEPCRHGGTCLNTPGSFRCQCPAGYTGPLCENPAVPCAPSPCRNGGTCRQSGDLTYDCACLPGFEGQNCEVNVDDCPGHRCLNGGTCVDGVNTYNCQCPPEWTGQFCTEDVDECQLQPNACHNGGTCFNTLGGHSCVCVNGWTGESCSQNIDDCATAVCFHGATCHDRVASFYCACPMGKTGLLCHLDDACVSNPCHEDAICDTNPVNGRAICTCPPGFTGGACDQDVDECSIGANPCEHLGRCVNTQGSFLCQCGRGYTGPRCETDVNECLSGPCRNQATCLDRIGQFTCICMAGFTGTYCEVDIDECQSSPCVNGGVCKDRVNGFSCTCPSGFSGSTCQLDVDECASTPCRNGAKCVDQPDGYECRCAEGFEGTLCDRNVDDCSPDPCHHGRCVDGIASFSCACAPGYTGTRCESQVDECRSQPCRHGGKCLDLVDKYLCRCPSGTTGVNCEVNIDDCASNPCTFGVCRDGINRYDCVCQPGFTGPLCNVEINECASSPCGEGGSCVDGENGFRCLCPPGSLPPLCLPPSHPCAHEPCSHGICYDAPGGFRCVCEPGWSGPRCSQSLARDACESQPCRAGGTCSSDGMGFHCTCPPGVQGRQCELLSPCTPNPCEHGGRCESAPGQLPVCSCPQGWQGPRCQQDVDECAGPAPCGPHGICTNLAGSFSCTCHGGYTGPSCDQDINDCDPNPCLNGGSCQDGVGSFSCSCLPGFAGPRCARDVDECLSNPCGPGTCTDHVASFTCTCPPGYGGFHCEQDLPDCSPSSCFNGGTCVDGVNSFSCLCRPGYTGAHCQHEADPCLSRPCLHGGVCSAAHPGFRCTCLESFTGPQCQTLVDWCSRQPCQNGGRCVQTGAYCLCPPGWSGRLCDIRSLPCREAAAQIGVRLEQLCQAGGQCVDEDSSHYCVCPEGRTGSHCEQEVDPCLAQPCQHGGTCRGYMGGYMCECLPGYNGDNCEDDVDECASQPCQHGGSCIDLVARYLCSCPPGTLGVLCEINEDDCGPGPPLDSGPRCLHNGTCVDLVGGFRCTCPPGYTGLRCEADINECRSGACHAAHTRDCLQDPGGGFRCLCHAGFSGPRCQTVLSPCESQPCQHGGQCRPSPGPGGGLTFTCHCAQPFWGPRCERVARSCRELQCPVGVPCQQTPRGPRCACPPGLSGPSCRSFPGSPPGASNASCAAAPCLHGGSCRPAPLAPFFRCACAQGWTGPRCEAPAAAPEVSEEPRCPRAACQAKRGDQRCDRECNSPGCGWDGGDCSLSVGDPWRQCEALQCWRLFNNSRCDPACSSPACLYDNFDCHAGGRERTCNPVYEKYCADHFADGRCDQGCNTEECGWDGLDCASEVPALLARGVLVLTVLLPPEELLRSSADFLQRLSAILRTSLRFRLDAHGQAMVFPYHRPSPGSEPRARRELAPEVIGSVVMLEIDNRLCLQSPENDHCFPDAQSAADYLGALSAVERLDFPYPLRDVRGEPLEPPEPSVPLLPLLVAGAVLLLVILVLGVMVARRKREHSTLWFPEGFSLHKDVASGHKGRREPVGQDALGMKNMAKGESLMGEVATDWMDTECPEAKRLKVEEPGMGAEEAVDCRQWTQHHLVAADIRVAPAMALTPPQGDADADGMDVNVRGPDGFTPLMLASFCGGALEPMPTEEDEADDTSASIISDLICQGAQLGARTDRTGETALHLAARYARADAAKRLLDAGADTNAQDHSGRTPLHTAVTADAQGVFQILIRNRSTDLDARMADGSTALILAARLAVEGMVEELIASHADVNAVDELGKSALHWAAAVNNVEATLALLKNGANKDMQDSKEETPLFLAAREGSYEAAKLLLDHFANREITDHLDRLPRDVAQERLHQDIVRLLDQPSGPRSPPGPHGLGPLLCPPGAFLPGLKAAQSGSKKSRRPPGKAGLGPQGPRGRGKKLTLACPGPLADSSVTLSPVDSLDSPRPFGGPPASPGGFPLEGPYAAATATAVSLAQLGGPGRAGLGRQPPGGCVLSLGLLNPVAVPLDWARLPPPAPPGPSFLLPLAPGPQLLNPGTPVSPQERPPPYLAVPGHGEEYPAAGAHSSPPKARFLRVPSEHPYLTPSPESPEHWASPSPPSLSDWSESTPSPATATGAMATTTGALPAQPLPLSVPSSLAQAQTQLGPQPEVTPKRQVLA
# test.description: NOTCH3 binders on small-molecule microarray, primary screen, biochemical, 635/667 nm fluorescence (AID 1096)
# condition.info: NOTCH3 binding, 635 nm fluorescence, higher = more signal
measured.property: composite z-score

- O=C(CS)NCCCCCNC(=O)[C@@H]1C[C@@H]2C(=O)N[C@@H](Cc3ccccc3)C(=O)N2[C@@H]1c1cccc(OCCO)c1: 0.823
- COc1cc(CO)cc(I)c1O[C@H]1C=C(C(=O)NCCO)C[C@@H](NCC2CCCCC2)[C@@H]1O: 0.793
- C[C@]1(C(=O)NCCN2CCOCC2)c2ccccc2C(=O)N(Cc2cc(F)cc(C(F)(F)F)c2)[C@H]1c1ccc(CO)cc1: 0.572
- CN1C(=O)[C@@]2(Cc3ccccc3)N=C(c3ccc(OCCCO)cc3)O[C@H]2c2ccccc21: 1
- O=C1C2C=CC(C(O)c3ccco3)N(Nc3ccccc3)C2C(=O)N1c1ccccc1 (stereo not given): 0.504

Dear colleague, please send me the reported composite z-score for CC(C)C(=C=CC[C@@H](O)c1cccc(OCCO)c1)C[C@@H](O)c1ccccn1 when you can.
0.603

For COC(=O)c1c2oc(c1C(=O)OC)C(=O)N1CCC[C@H]1Cn1nncc1CN(Cc1ccccc1)C(=O)N[C@H](CO)CC2 , write its composite z-score.
0.2

Identify the reported composite z-score for the following entry. CCCCC(=O)N(CCN1CCOCC1)[C@@H]1CC(C(=O)NCCO)=C[C@H](Oc2c(I)cc(CO)cc2OC)[C@H]1O
0.232

State, in one line, measured composite z-score of O=C1N[C@@H](Cc2ccccc2)C(=O)N2[C@@H]1C[C@@H](C(=O)O)[C@H]2c1ccc(O)cc1
1.11

Tell us which composite z-score value is on record for CO[C@H]1O[C@H](CO)[C@@H](OC(=O)CCc2ccccc2)[C@H](OC(=O)c2cc3ccccc3[nH]2)[C@H]1OC(=O)c1cc2ccccc2[nH]1
1.07

Check the records and state composite z-score for O=C1C2C=CC(C(O)C=Cc3ccc([N+](=O)[O-])cc3)N(Nc3ccccc3)C2C(=O)N1c1ccccc1 (stereo not given)
1.04

For the compound C#C[C@@H](CC)O[Si](C#CCCCC#N)(C(C)C)C(C)C , give its reported composite z-score.
0.398

# credit: PubChem BioAssay
